Below, each of the compounds is paired with its reported MDR pEC50 (−log EC50) value.
- MEASUREMENT_TARGET: HIV strain MDR (L100I, K103N, Y181C, E138G, V179I, L2214F, V278V/I and A327A/V in HIV reverse transcriptase)
- ASSAY_INFO: microbe, parasite or virus in culture
- Format: cell-based, HIV-1
- PARTICULARS: MDR HIV strain (multiple RT mutations); MT4 LTR-EGFP cells; three days after infection

{"COMPOUND": "Cc1cc(C=CC#N)cc(C)c1Nc1cc(CN2CCOCC2)nc(Nc2ccc(C#N)cc2)n1 (mixture of isomers)", "MDR pEC50 (−log EC50)": 5.57}
{"COMPOUND": "C=CCOCc1cc(Nc2c(C)cc(/C=C/C#N)cc2C)nc(Nc2ccc(C#N)cc2)n1", "MDR pEC50 (−log EC50)": 4.95}
{"COMPOUND": "CC(=O)NCCNCc1cc(Nc2c(C)cc(C=CC#N)cc2C)nc(Nc2ccc(C#N)cc2)n1 (mixture of isomers)", "MDR pEC50 (−log EC50)": 5.50}
{"COMPOUND": "CON(C)Cc1cc(Nc2c(C)cc(C=CC#N)cc2C)nc(Nc2ccc(C#N)cc2)n1 (mixture of isomers)", "MDR pEC50 (−log EC50)": 6.33}
{"COMPOUND": "Cc1cc(/C=C/C#N)cc(C)c1Nc1cc(CN2CCN(C)CC2)nc(Nc2ccc(C#N)cc2)n1", "MDR pEC50 (−log EC50)": 5.59}
{"COMPOUND": "COCC(C)NCc1cc(Nc2c(C)cc(C=CC#N)cc2C)nc(Nc2ccc(C#N)cc2)n1 (mixture of isomers)", "MDR pEC50 (−log EC50)": 5.67}
{"COMPOUND": "CCOP(=O)(OCC)OCc1cc(Nc2c(C)cc(/C=C/C#N)cc2C)nc(Nc2ccc(C#N)cc2)n1", "MDR pEC50 (−log EC50)": 6.40}
